subject_of_test: UniProt P04629
Sequence (P04629 441-796): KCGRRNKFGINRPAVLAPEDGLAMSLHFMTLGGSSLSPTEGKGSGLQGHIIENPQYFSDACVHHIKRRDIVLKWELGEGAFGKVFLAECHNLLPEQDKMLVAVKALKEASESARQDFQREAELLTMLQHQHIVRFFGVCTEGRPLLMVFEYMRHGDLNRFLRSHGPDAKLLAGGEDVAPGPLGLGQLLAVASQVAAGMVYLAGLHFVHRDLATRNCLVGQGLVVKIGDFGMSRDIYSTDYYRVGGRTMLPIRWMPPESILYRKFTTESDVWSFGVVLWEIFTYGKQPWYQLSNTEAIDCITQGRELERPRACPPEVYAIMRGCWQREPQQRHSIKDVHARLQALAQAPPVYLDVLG
method_summary: Isolated TRK enzyme assay (HTRF KinEASE-TK), PV3144 TrkA enzyme assay
test_settings: arithmetic mean where more than one reading
Overview of reported IC50 across a group of molecules:
Reply with just the number (in nM).

// solved cases for IC50 follow
Entry O=C(Cc1ccc(F)cn1)Nc1cc(C(=O)c2cn(C3COC3)c3ccncc23)ccn1 [Example 196] , IC50 reported as 1280

Entry CC(C)n1cc(C(=O)c2cc(NC(=O)Cc3cnn(C4CC4)c3C(F)(F)F)ccn2)c2cnccc21 [Example 56] , IC50 reported as 177

Entry CC(C)n1cc(C(=O)c2ccnc(NC(=O)Cn3cc(Cl)cn3)c2)c2cnccc21 [Example 99] , IC50 reported as 42.9

# evaluate next
Entry Cc1cc(C(C)C)nn1CC(=O)Nc1cc(C(=O)c2cn(C(C)C)c3ccncc23)ccn1 [Example 113] , IC50 reported as 20.4
